target: Adenosine receptor A1 (Homo sapiens); test: Percent change in cAMP content of CHO (Chinese hamster ovary) cells expressing human Adenosine A1 receptor at 1 uM; type: functional, cell-based
MEASURED_QUANTITY: Change (%)

[
  {
    "SMILES_NOTATION": "Cc1cc(C(=O)c2c(N)sc3c2CCC3)cc2ccccc12",
    "MEASUREMENT_UNIT": "%",
    "Change": -13
  }
]

[A] Nc1sc2c(c1C(=O)c1ccc(Cl)c3ccccc13)CCN(Cc1ccccc1)C2
[B] Cc1sc(N)c(C(=O)c2cc(C)c3cc(Cl)ccc3c2)c1C
Exercise: Please let me know which one, A or B , has a lower measured Change value. API: response body contains the label of the selected item.
Key: B
